- MEASUREMENT_NOTES: protein stability index of a GFP-peptide fusion (yeast GPS) (PSI 1-4); higher = more stable; sorted into four equal gates, so the index is relative within each strain
- RUN_CONDITIONS: doa10∆
METRIC_NAME: protein stability index

>>> df
                        residue_string              metric_name  measured_number
 0            FIEDLAPEQQVQQFAQL [UBP6]  protein stability index             2.79
 1           HKLVFVVRIKGINKIPP [RPL7A]  protein stability index              1.4
 2            MVNESDGVTHALYPQEA [RPB2]  protein stability index             3.16
 3            SLYPPPPPYVKFFTQSN [MED7]  protein stability index             1.97
 4            ESLVHSALCILKEQELV [BRR2]  protein stability index             2.35
 5  LISIISSVIQNYDIITA [YML103C/NUP188]  protein stability index             1.81
 6            SFGKIYVTKPMVNESDG [RPB2]  protein stability index             3.12
 7            DERSQGEKNFTSAHLKL [SMC4]  protein stability index             3.17
 8            EILILINDPTNKEYTLV [SIN4]  protein stability index             1.77
 9            NPEPNKKNIQKAKSNQT [IRR1]  protein stability index             2.25
10            IQGISKMYSDDTLKDIS [BRN1]  protein stability index             3.24
11           KQVLLRLNPYAKVFAAE [RPL4A]  protein stability index             2.12
12          APPQRPRFNRDNKVSPA [RPS26B]  protein stability index             2.79
13            IKNISNRVGLTLDNIDD [ARP9]  protein stability index             2.65
14    NDDSSSMNATMRNFSKQ [YDL088C/ASM4]  protein stability index             2.76
15            KQQDAEELFTQLFHSMS [UBP6]  protein stability index             3.25
16            ESVELPLTHPELYEEMG [RPT2]  protein stability index             2.63
17            GTCFGGSKLEDMSKILV [RET1]  protein stability index             3.04
18            RHLPMYTEFIDSFIEKI [ITC1]  protein stability index              2.4
19            SPLQKEEALNFDISMAD [SSN2]  protein stability index             3.23
20            GLWGFSTATRNVTMIDD [COR1]  protein stability index             3.18
21            LNDRFQTLSSHLEALQP [PGD1]  protein stability index             2.64
22  EKSRISERDSKDRYING [YMR129W/POM152]  protein stability index             3.01
23           LDEDDTNDGIERYSDKY [RPC31]  protein stability index             3.32
24            DCIIRLPVKWETTTQFK [FAS1]  protein stability index             1.74
25            YSSKPYKVDNMTRILPQ [RPN2]  protein stability index             2.62
26            KNHTHNLPGNITVVLGV [RRP4]  protein stability index              2.3
27            AGDWKYDRQLSSLFLDG [FAS2]  protein stability index             2.16
28            VNDNPDIEAGDDDDNNE [DIS3]  protein stability index             3.46
29            SNTTTQIQFTPLIKKIK [SMC3]  protein stability index              2.2
30          SKQQAKGAFQKVAATSR [RPL24A]  protein stability index             2.52
31            VSISTSVKPHVVEPEHM [SIR4]  protein stability index             2.54
32            RNSKTVREFLEKNYDRK [PRE6]  protein stability index             3.08
33    SRLKALNLQFKAKVDDL [YLR335W/NUP2]  protein stability index             3.12
34            TLKDYQIKGLQWMVSLF [SNF2]  protein stability index             3.01
35            SFVKETKLHSGDYGEEE [SRB8]  protein stability index             3.61
36            DWEDEEKYEDEDEEKIL [DSN1]  protein stability index             3.28
37            HKSDVMSVDIDKKASMI [ASC1]  protein stability index                3
38            NGNDESSEYETINISLS [NUT1]  protein stability index             3.16
39           EEYKQLVKDRKFLREVF [RPO21]  protein stability index             3.32
40            NKHLTTLVEIFLERKCV [SSN3]  protein stability index              2.6
41           KIRPWRTFRLNECVCTP [RPO31]  protein stability index             1.31
42          RCYQPFELFDNKTAHLS [SNU114]  protein stability index             2.27
43           TFLPPLLLKLASPHASV [ECM29]  protein stability index             1.63
44           GNMCRGGRMFAPTKTWR [RPL4A]  protein stability index             2.92
45            LDNMTYSSVAGTVSRVN [RRP4]  protein stability index             2.44
46  CSFAVTKSSLNDLDYDL [YML103C/NUP188]  protein stability index             3.04
47            IQEQRVKDKQSKVSDDS [RPN8]  protein stability index             1.97
48            FTQPALTLMEKAAFEDL [FAS1]  protein stability index             2.74
49            SGNNSKKRKNKSSGSSM [ROX3]  protein stability index             2.65
50            SDIPVSENVFEGLTYKY [SSN3]  protein stability index             1.82
51            YENKQLYFPDDYPFTQL [POP1]  protein stability index             2.92
52            TGAGVSTSLGIPDFRSS [SIR2]  protein stability index             2.19
53            LLAQLNGTVNNNSALSN [RPT3]  protein stability index             3.23
54  DSNSEILNFLNQEDLFE [YML103C/NUP188]  protein stability index             2.79
55            LQSDKNFLDNCLFENDL [ITC1]  protein stability index             2.13
56            LAKKWFLQHPDEEYPVK [PRP8]  protein stability index             3.23
57            TFIKDCLFTKCLEDPEK [POP4]  protein stability index             1.57
58            IETLDPALIRPGRIDRK [RPT2]  protein stability index             2.53
59            NLINLSIGASIADLASL [YCS4]  protein stability index             2.45

Origin of measurements: the supplement of paper PMC9732359
